- protocol.summary: Cytotoxicity expressed as ID50 which is the concentration required for 50% growth inhibition of normal human lymphocytes.
- stated.conditions: read-out: ID50 (the source's name)
Provide the reported GI50 of each item.

// solved cases for GI50 follow
# query.smiles, GI50
rows = [
    ("Nc1nc(=O)n([C@@H]2O[C@H](CO)[C@@H](O)[C@H]2F)cc1I", "8.6 µM"),
    ("O=c1[nH]c(=O)n([C@@H]2O[C@H](CO)[C@@H](O)[C@@H]2F)cc1/C=C/Cl", "> 100 µM"),
]

Please state, for each entry, its recorded GI50.
1. O=c1[nH]c(=O)n([C@H]2O[C@@H](CO)[C@H](O)[C@@H]2F)cc1/C=C/Br
2. CCc1cn([C@H]2O[C@@H](CO)[C@H](O)[C@@H]2F)c(=O)[nH]c1=O

Result:
> 100 µM
> 100 µM

Please state, for each entry, its recorded GI50.
1. C=Cc1cn([C@@H]2O[C@H](CO)[C@@H](O)[C@H]2F)c(=O)[nH]c1=O
2. O=c1[nH]c(=O)n([C@@H]2O[C@H](CO)[C@@H](O)[C@@H]2F)cc1/C=C/I

Result:
["> 100 µM", "> 100 µM"]
